ASSAY TEXT: NCI Yeast Anticancer Drug Screen. Data for the mec2-1 strain (AID 157)
MEASUREMENT CONTEXT: S. cerevisiae mec2-1 strain, at 50.0 µM (retest, dose inferred, filed as 5.0), stronger effect = higher value
About 79,000 compounds went through this panel and 15% of them were active in at least one assay; those are over-represented in the sample as a whole.
Rule: growth inhibition of 60% or more gives Y; anything lower gives N.

MOLECULE: CN(C)C(N)=NC#N
CLASS ASSIGNMENT: Y
--
MOLECULE: CN(C)C(=O)c1ccccc1SC(=S)NCc1ccccc1
CLASS ASSIGNMENT: Y
--
MOLECULE: c1ccc(-c2c[nH]c(-c3ccccc3)c2-c2ccccc2)cc1
CLASS ASSIGNMENT: Y
--
MOLECULE: CC1OC(c2ccc3c(c2)OCO3)OC1C (stereo not drawn)
CLASS ASSIGNMENT: N
--
MOLECULE: CCCCC#CCCOC(=O)C#CCCCC
CLASS ASSIGNMENT: N
--
MOLECULE: Oc1cccc2ccc(SSc3ccc4cccc(O)c4n3)nc12
CLASS ASSIGNMENT: Y
--
MOLECULE: N#CSc1ccc2nc(NCO)sc2c1
CLASS ASSIGNMENT: Y
--
MOLECULE: Oc1ccccc1C1N(Cc2ccc(Cl)cc2)CCN1Cc1ccc(Cl)cc1
CLASS ASSIGNMENT: N
--
MOLECULE: Nc1ncnc2c1c(-c1ccccc1)cn2-c1ccc(Br)cc1
CLASS ASSIGNMENT: N
--
MOLECULE: O=C(CNC(=O)OCc1ccccc1)NNc1ccccc1Cl
CLASS ASSIGNMENT: Y
--
MOLECULE: CC(=O)NC(C)(C)C1CCC(C)=C(c2ccccc2)C1 (stereo not drawn)
CLASS ASSIGNMENT: N
--
MOLECULE: O=C(NCCCCCCNC(=O)n1cc(F)c(=O)[nH]c1=O)NC1C(O)OC(CO)C(O)C1O (stereo not drawn)
CLASS ASSIGNMENT: Y
--
MOLECULE: c1ccc(CCC2=Nc3ccccc3CO2)cc1
CLASS ASSIGNMENT: N
--
MOLECULE: [Cl][Pt+2][Cl].[NH-]CC1(C[NH-])CCCC1
CLASS ASSIGNMENT: N
--
MOLECULE: Oc1c(Br)cc(Br)cc1-c1ccccc1
CLASS ASSIGNMENT: Y
--
MOLECULE: Cc1cccc(O)c(=O)c1
CLASS ASSIGNMENT: Y
--
MOLECULE: O=C(OC1CC2CC1C1CC=CC21)c1ccccc1 (stereo not drawn)
CLASS ASSIGNMENT: N
--
MOLECULE: NC(=O)c1ncn(C2OC(CO)C(O)C2O)c1O (stereo not drawn)
CLASS ASSIGNMENT: N
--
MOLECULE: O=C1CN(/N=C\c2ccc([N+](=O)[O-])o2)C(=O)N1
CLASS ASSIGNMENT: N
--
MOLECULE: COC(=O)c1ccc(C)cc1C1CN=NC12Cc1cc(C)ccc1C2=O (stereo not drawn)
CLASS ASSIGNMENT: N
--
MOLECULE: O=[N+]([O-])c1ccccc1SCc1ccccc1
CLASS ASSIGNMENT: N
--
MOLECULE: NC(C(=O)O)C1=CCCCCC1 (stereo not drawn)
CLASS ASSIGNMENT: Y
--
MOLECULE: CN(C)c1ccc(/C=C(\C#N)c2cccc(Cl)c2)cc1
CLASS ASSIGNMENT: N
--
MOLECULE: CC1CCC2(C)C(CC=C(C=O)C2(O)C=O)C12CO2 (stereo not drawn)
CLASS ASSIGNMENT: Y
--
MOLECULE: O=C1CN(CCN2CCOCC2)CC(=O)N2CCCCN12
CLASS ASSIGNMENT: N
--
MOLECULE: Cc1cnc(Sc2ncccc2[N+](=O)[O-])[nH]c1=O
CLASS ASSIGNMENT: N
--
MOLECULE: C/C(=N\NC(=S)N1CCCC1)c1nc2ncccc2[nH]1
CLASS ASSIGNMENT: Y
--
MOLECULE: Oc1c(Cl)cc(Cl)cc1Br
CLASS ASSIGNMENT: Y
--
MOLECULE: O=C1CCC(O)N1CN1C(=O)CCC1O (stereo not drawn)
CLASS ASSIGNMENT: N
--
MOLECULE: O=C(C(=O)c1ccc(Cc2ccc(C(=O)C(=O)c3ccccc3)cc2)cc1)c1ccccc1
CLASS ASSIGNMENT: N
--
MOLECULE: O=C1CC2(CCCC2)C(=O)N1c1ccc(N2C(=O)CC3(CCCC3)C2=O)cc1
CLASS ASSIGNMENT: N
--
MOLECULE: CC1=C(C(=O)Nc2ccc(C)cc2C)C(c2cccc([N+](=O)[O-])c2)C(C(=O)Nc2ccc(C)cc2C)=C(C)N1
CLASS ASSIGNMENT: Y
--
MOLECULE: O=C(OCc1ccccc1CN1CCOCC1)c1cccc(Br)c1
CLASS ASSIGNMENT: N
--
MOLECULE: COc1ccccc1/C=C1\NC(=S)N(/C=C2\C(=O)Oc3ccccc3C2=O)C1=O
CLASS ASSIGNMENT: N
--
MOLECULE: Nc1cccc2c(O)cccc12
CLASS ASSIGNMENT: N
--
MOLECULE: Oc1ccc(C23CC4CC(CC(C4)C2)C3)cc1
CLASS ASSIGNMENT: N
--
MOLECULE: COc1cccc(=O)cc1
CLASS ASSIGNMENT: N
--
MOLECULE: COc1cccc2c1C(=O)c1c(O)c3c(c(O)c1C2=O)C[C@@](O)(C(=O)CO)C[C@@H]3OC1CC(N(C)C)C(O)C(C)O1 (stereo partly drawn)
CLASS ASSIGNMENT: Y
--
MOLECULE: Oc1cc(O)c2c(c1)OC(c1ccc(O)c(O)c1)C(OC1(c3cc(O)c(O)c(O)c3)Oc3cc(O)cc(O)c3C(O)C1O)C2 (stereo not drawn)
CLASS ASSIGNMENT: N
--
MOLECULE: COc1cc(NCCCCCNC(C)C)c2ncc(C)c(C)c2c1
CLASS ASSIGNMENT: N
--
MOLECULE: O=[N+]([O-])c1ccccc1CC(c1c[nH]c2ccccc12)c1c[nH]c2ccccc12
CLASS ASSIGNMENT: Y
--
MOLECULE: CCN(CC)CCCC(C)Nc1cc(C)nc2c1ccc1c2ccc2c(NC(C)CCCN(CC)CC)cc(C)nc21 (stereo not drawn)
CLASS ASSIGNMENT: Y
--
MOLECULE: Cc1cc(Cc2cccc(Cl)c2)ccc1O
CLASS ASSIGNMENT: Y
--
MOLECULE: O=[N+]([O-])c1ccc(S(=O)(=O)C/C=C/CCl)c([N+](=O)[O-])c1
CLASS ASSIGNMENT: Y
--
MOLECULE: Cc1csc2c1C(=O)c1ccsc1C2=O
CLASS ASSIGNMENT: Y
--
MOLECULE: CC(C)C1=C(O)C2=C(C(=O)C1=O)C1(C)CCCC(C)(C)C1C(O)C2OC=O (stereo not drawn)
CLASS ASSIGNMENT: Y
--
MOLECULE: O=C(CCCN1CCc2[nH]c3cc(F)ccc3c2C1)c1ccc(F)cc1
CLASS ASSIGNMENT: Y
--
MOLECULE: CSc1ncnc2nn(C3OC(COC(=O)c4ccccc4)C(OC(=O)c4ccccc4)C3OC(=O)c3ccccc3)nc12 (stereo not drawn)
CLASS ASSIGNMENT: N
